Where these numbers come from: ChEMBL document CHEMBL1641498

Assay: Solubility of the compound in water at pH 7
Assay type: physicochemical
Measured parameter: solubility

> print(dat)
                        smi  assay.result
1  O=C(O)CCc1cccc2c1B(O)OC2     750 µg/mL
